- measured-on: Induced myeloid leukemia cell differentiation protein Mcl-1 (Homo sapiens) (UniProt Q07820)
- Sequence (Q07820 whole entry, looked up): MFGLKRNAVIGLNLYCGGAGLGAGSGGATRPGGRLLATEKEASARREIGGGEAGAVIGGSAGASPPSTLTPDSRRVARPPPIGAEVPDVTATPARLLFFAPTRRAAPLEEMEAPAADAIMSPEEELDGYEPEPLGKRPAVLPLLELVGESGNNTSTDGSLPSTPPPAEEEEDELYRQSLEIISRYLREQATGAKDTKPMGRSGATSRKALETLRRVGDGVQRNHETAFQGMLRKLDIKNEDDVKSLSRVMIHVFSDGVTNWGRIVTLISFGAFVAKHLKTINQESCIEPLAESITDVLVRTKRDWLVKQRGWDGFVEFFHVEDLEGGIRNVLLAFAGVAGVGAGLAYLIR
- protocol-text: Mcl-1/Noxa binding inhibitor potency, dose response, biochemical, TR-FRET (AID 1417)
- stated-conditions: Mcl-1/Noxa peptide interaction, cell-free TR-FRET (terbium/rhodamine), 2 h; measured here: absolute IC50
pIC50: −log10 of the molar value.
# pIC50 listing for each entry below

Take a look at these entries with their results.
{"compound": "N=C1/C(=C/c2ccc(-c3cccc(C(=O)O)c3)o2)C(=O)N=C2SC=C(c3ccccc3)N12", "pIC50": "> 6.40"}
{"compound": "O=c1/c(=C\\c2cc([N+](=O)[O-])cc([N+](=O)[O-])c2O)sc2nc3ccccc3n12", "pIC50": "> 6.40"}
{"compound": "CC1=C(C#N)C(=O)N(C2CCS(=O)(=O)C2)C(=O)/C1=C\\c1ccc(C)o1 (centres undefined)", "pIC50": "> 6.40"}

// below: pIC50 requested for another compound
Output measured pIC50 for this item: COc1ccc(NC(=O)Cc2c(SC)c3ccccc3n2Cc2ccccc2)cc1
< 4.27
